Test system: Sarcoma 180 mouse solid tumor
Assay: Antitumor activity against Sarcoma 180 mouse solid tumor
Assay type: in vivo, male ddY mice
Settings: Sarcoma-180, iv, 168 h, 8.0 mg/kg, single i.v., tumor volume on day 7 from transplant, read-out: T/C (tumor volume ratio treated/control)
Each item that follows carries a reported response vs control in vivo at 8 mg/kg.
Quantity Name: response vs control in vivo at 8 mg/kg (%)

Molecule | Target | Quantitative Result
CC(=O)O[C@@H]1C=CC(OC2/C=C(\C)CCC3(C(C)(O)C(=O)SCc4oc(=O)oc4C)CC(=O)N(C(C)c4nc(cs4)/C=C\C=C\C2=O)[S+]3[O-])O[C@H]1C (stereo partly shown) | Sarcoma 180 mouse solid tumor | 50
C/C1=C\C(OC(=O)COCCOCCO)C(=O)/C=C/C=C\c2csc(n2)C(C)N2C(=O)CC(C(C)(O)C(=O)SCc3oc(=O)oc3C)(CC1)[S+]2[O-] (stereo not shown) | Sarcoma 180 mouse solid tumor | 37
COCCOCCOCCOCCOCCOCC(=O)OC1/C=C(\C)CCC2(CC(=O)NC(C)c3nc(cs3)/C=C\C=C\C1=O)[S+]([O-])SC(=O)C2(C)O (stereo not shown) | Sarcoma 180 mouse solid tumor | 30
C/C1=C\C(OC(=O)COCCOCCOCCOCCO)C(=O)/C=C/C=C\c2csc(n2)C(C)N2C(=O)CC(C(C)(O)C(=O)SCc3oc(=O)oc3C)(CC1)[S+]2[O-] (stereo not shown) | Sarcoma 180 mouse solid tumor | 43
COCCOCCOCC(=O)OC1/C=C(\C)CCC2(C(C)(O)C(=O)SCOC(=O)COCCOCCO)CC(=O)N(C(C)c3nc(cs3)/C=C\C=C\C1=O)[S+]2[O-] (stereo not shown) | Sarcoma 180 mouse solid tumor | 40
COCCOCCOCCOCC(=O)OC1/C=C(\C)CCC2(C(C)(O)C(=O)SCc3oc(=O)oc3C)CC(=O)N(C(C)c3nc(cs3)/C=C\C=C\C1=O)[S+]2[O-] (stereo not shown) | Sarcoma 180 mouse solid tumor | 39
COCCOCCOCC(=O)OC1/C=C(\C)CCC2(C(C)(O)C(=O)SCc3oc(=O)oc3C)CC(=O)N(C(C)c3nc(cs3)/C=C\C=C\C1=O)[S+]2[O-] (stereo not shown) | Sarcoma 180 mouse solid tumor | 39
COCCOCCOCC(=O)OC1/C=C(\C)CCC2(C(C)(O)C(=O)SCOC(=O)CC[C@H](NC(=O)OC(C)(C)C)C(=O)OC(C)(C)C)CC(=O)N(C(C)c3nc(cs3)/C=C\C=C\C1=O)[S+]2[O-] (stereo partly shown) | Sarcoma 180 mouse solid tumor | 48
COCCOCC(=O)OCCOCCOCC(=O)OC1/C=C(\C)CCC2(CC(=O)NC(C)c3nc(cs3)/C=C\C=C\C1=O)[S+]([O-])SC(=O)C2(C)O (stereo not shown) | Sarcoma 180 mouse solid tumor | 12
COCCOCCOCC(=O)OC1/C=C(\C)CCC2(C(C)(O)C(=O)SCOC(=O)CC[C@H](NC(=O)[C@@]34O[C@H]5COC(C)(C)O[C@H]5[C@@H]3OC(C)(C)O4)C(=O)OC)CC(=O)N(C(C)c3nc(cs3)/C=C\C=C\C1=O)[S+]2[O-] (stereo partly shown) | Sarcoma 180 mouse solid tumor | 31
COCCOCCOCC(=O)OC1/C=C(\C)CCC2(C(C)(O)C(=O)SCOC(=O)CC[C@H](NC(=O)C3(C)COC(C)(C)OC3)C(=O)OC)CC(=O)N(C(C)c3nc(cs3)/C=C\C=C\C1=O)[S+]2[O-] (stereo partly shown) | Sarcoma 180 mouse solid tumor | 47
C/C1=C\C(OC2C=C[C@@H](O)[C@H](C)O2)C(=O)/C=C/C=C\c2csc(n2)C(C)N2C(=O)CC(C(C)(O)C(=O)SCc3oc(=O)oc3C)(CC1)[S+]2[O-] (stereo partly shown) | Sarcoma 180 mouse solid tumor | 44
C/C1=C\C(OC(=O)COCCOCCOCCOCCO)C(=O)/C=C/C=C\c2csc(n2)C(C)NC(=O)CC2(CC1)[S+]([O-])SC(=O)C2(C)O (stereo not shown) | Sarcoma 180 mouse solid tumor | 18

* * *

Tested on: Sarcoma 180 mouse solid tumor
Experiment: Antitumor activity against Sarcoma 180 mouse solid tumor
Type: in vivo, male ddY mice
Conditions: Sarcoma-180, iv, 168 h, 4.0 mg/kg, single i.v., tumor volume on day 7 from transplant, read-out: T/C (tumor volume ratio treated/control)
The label yes (1) is reserved for response vs control in vivo at 4 mg/kg strictly under 40%; no (0) covers values equal to or above it.

Molecule | Cat
CC(=O)O[C@H]1[C@H](C)OC(OC2/C=C(\C)CCC3(C(C)(O)C(=O)SCc4oc(=O)oc4C)CC(=O)N(C(C)c4nc(cs4)/C=C\C=C\C2=O)[S+]3[O-])C[C@@H]1OC(C)=O (stereo partly drawn) | no (0)
COCCOCCOCC(=O)OC1/C=C(\C)CCC2(CC(=O)NC(C)c3nc(cs3)/C=C\C=C\C1=O)[S+]([O-])SC(=O)C2(C)O (stereo not drawn) | yes (1)
C/C1=C\C(OC(=O)COCCCCO)C(=O)/C=C/C=C\c2csc(n2)C(C)NC(=O)CC2(CC1)[S+]([O-])SC(=O)C2(C)O (stereo not drawn) | yes (1)
COCCOCCOCC(=O)OC1/C=C(\C)CCC2(C(C)(O)C(=O)SCOC(=O)OCCOCCOC)CC(=O)N(C(C)c3nc(cs3)/C=C\C=C\C1=O)[S+]2[O-] (stereo not drawn) | no (0)
C/C1=C\C(OC(=O)COCCOCCO)C(=O)/C=C/C=C\c2csc(n2)C(C)NC(=O)CC2(CC1)[S+]([O-])SC(=O)C2(C)O (stereo not drawn) | yes (1)
COCCOCCOCC(=O)OCCOCCOCC(=O)OC1/C=C(\C)CCC2(CC(=O)NC(C)c3nc(cs3)/C=C\C=C\C1=O)[S+]([O-])SC(=O)C2(C)O (stereo not drawn) | no (0)
